meta.source: patent US20220348651A1

Field: pEC50. Provide a value for each of the binders that follow.
- target.system: T1, cyno ENTPD2 expressed on NIH/3T3 cells (cynomolgus macaque, UniProt Q9Y5L3 1-495 (human entry))
- T1 construct: also called NIH3T3 cynoENTPD2; Cyno ENTPD2 NIH/3T3
- T1 chain: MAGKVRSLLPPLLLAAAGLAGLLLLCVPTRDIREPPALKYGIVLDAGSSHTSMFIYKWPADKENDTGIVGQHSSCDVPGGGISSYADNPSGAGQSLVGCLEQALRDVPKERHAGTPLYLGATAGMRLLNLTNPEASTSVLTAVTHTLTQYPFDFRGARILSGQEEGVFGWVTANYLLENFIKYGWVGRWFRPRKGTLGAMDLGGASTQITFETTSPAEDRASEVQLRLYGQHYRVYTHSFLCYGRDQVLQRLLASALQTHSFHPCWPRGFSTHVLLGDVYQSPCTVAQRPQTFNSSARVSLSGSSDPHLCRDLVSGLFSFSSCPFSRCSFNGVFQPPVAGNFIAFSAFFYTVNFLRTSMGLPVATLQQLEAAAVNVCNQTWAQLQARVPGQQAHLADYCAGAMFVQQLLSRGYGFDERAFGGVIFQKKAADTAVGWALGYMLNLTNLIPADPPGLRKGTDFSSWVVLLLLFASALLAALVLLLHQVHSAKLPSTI
- method.description: flow cytometry, NIH3T3 cyno ENTPD2 cells
Value format note: pEC50 is -log10 of concentration (mol/L); just state the number.

Consider the binder shown here: ANTI-HUMAN ENTPD2 MAB3 (antibody, human IgG1, kappa, V domains shown, humanized from mAb17; human IgG1, kappa; also called Anti-ENTPD2 mAb3) VH: QVQLVQSGAEVVKPGASVKISCKASGYTFTDYNMDWVKQAPGQRLEWIGDINPKYDISTYNQQFKGKATITVDTSASTAYMELSSLRSEDTAVYYCARRGFFLYYGINYYYFDVWGQGTLVTVSS VL: EIVLTQSPATLSASPGERITLSCSASSSVSYIHWYQQKPGQAPRLLIYSTSNLASGIPARFSGSGSGTFYTLTISSVEPEDAAVYYCHQWSSYPWTFGGGTKLEIKR What is its recorded pEC50? 8.27

Ok, now ANTI-HUMAN ENTPD2 MAB6 (antibody, human IgG1, kappa, V domains shown, humanized and optimized from mAb16; human IgG1, kappa; also called Anti-ENTPD2 mAb6) VH: QVQLQESGPGLVKPSQTLSLTCTVSGYSITSGYYWNWIRQHPGKGLEWMGYISYDADNNYNPSLKNRITISRDTSKNQFSLKLSSVTAADTAVYYCAGGYYRYGLGSYSGSYYYVMDYWGQGTTVTVSS VL: DTQMTQSPSSLSVSVGDRATITCKASQSVDYEGHSYMNWYQQKPGKAPKLLIYAASNLESGVPSRFSGSGSGTDFTLTISSVQPEDFATYYCQQSNEDPPTFGGGTKLEIKR 8.15

Ok, now ANTI-HUMAN ENTPD2 MAB8 (antibody, human IgG1, lambda, V domains shown, also called Anti-ENTPD2 mAb8) VH: QVQLQQSGPGLVKPSQTLSLTCAISGDSVSSSSAAWNWIRQSPSRGLEWLGRIYYRSKWYNDYAVSVKSRITINPDTSKNQFSLQLNSVTPEDTAVYYCARGSYVTSSYEGFDYWGQGTLVTVSS VL: SYELTQPLSVSVALGQTARITCSGDNLPEKYAYWYQQKPGQAPVLVIYDDNKRPSGIPERFSGSNSGNTATLTISRAQAGDEADYYCQSYGKWGWTWVFGGGTKLTVLG 8.68
